- experimental.protocol: clinical
- condition.label: human, in vivo, po, 250 mg/day
observation.type: AUC (ng·h/mL)
Give bare numbers, in ng·h/mL.

Query :: # input molecule: CN1CCC(COc2cnc(-c3cccc(Cn4nc(-c5cccc(C#N)c5)ccc4=O)c3)nc2)CC1 ; wanted: its AUC
Result :: 12300

----------
- experimental.protocol: clinical
- condition.label: human, in vivo, po, 500 mg/day
observation.type: Cmax (ng/mL)
Give bare numbers, in ng/mL.

Query :: # input compound: CN1CCC(COc2cnc(-c3cccc(Cn4nc(-c5cccc(C#N)c5)ccc4=O)c3)nc2)CC1 ; wanted: its Cmax
Result :: 1240
